- Test system: cat flea (Ctenocephalides felis)
- run description: Ctenocephalides felis adulticide assay: single dose screen on treated glass surface (% mortality at 1.26 μg/cm^2, 24 hours)
- Assay type: in vivo
- applied conditions: Ctenocephalides felis, 24 h, read-out: Ctenocephalides felis Mortality (%) 24 h
Lab note: anything with mortality at 1.26 µg/cm2, 1.26 µg/cm2 below 30% is marked Condition met; values at 30% or higher are marked Condition not met.

compound="O=S(=O)(Nc1ccc(Cl)cc1Oc1ccc(Cl)cc1Cl)C(F)(F)F [Compound 1]" classification="Condition not met"
compound="O=S(=O)(Nc1ccc(Cl)cc1Sc1ccc(Cl)cc1)C(F)(F)F [Compound 12]" classification="Condition not met"
compound="C#CCN(c1ccc(Cl)cc1Oc1ccc(Cl)cc1Cl)S(=O)(=O)C(F)(F)F [Compound 83]" classification="Condition not met"
compound="CN(c1ccc(Cl)cc1Oc1ccc(Cl)cc1Cl)S(=O)(=O)C(F)(F)F [Compound 70]" classification="Condition met"
compound="CC(C)=CCN(c1ccc(Cl)cc1Oc1ccc(Cl)cc1Cl)S(=O)(=O)C(F)(F)F [Compound 75]" classification="Condition not met"
compound="O=S(=O)(Nc1ccc(Oc2ccc(Cl)cc2Cl)c(Cl)c1)C(F)(F)F [Compound p7]" classification="Condition met"
compound="O=S(=O)(N(Cc1ccccc1)c1ccc(Cl)cc1Oc1ccc(Cl)cc1Cl)C(F)(F)F [Compound 92]" classification="Condition not met"
compound="O=S(=O)(Nc1ccc(Cl)cc1Oc1ccccc1-c1ccccc1)C(F)(F)F [Compound 74]" classification="Condition not met"
compound="CC(C)(C)C(=O)OCN(c1ccc(Cl)cc1Oc1ccc(Cl)cc1Cl)S(=O)(=O)C(F)(F)F [Compound 72]" classification="Condition met"
compound="O=S(=O)(Nc1ccc(Cl)cc1Nc1ccc(Cl)cc1)C(F)(F)F [Compound 91]" classification="Condition met"
compound="CCCC(=O)OCN(c1ccc(Cl)cc1Oc1ccc(Cl)cc1Cl)S(=O)(=O)C(F)(F)F [Compound 73]" classification="Condition not met"
compound="CCOCN(c1cccc(Oc2ccc(Cl)cc2Cl)c1)S(=O)(=O)C(F)(F)F [Compound m7]" classification="Condition met"
